Entry source: ChEMBL document CHEMBL1155507

assay: Half life in cynomolgus monkey at 1 mg/kg, iv; assay type: ADME, organism-based, Macaca fascicularis; parameters: dose 1 mg/kg, route intravenous; settings: in vivo
measure: half-life (min)
Field format: number, assumed min, no unit text.

# molecule, quantitative readout
data = [
    ("Cc1ncnc(C)c1C(=O)N1CCC(C)(N2CCC(N3C(=O)N(CC4CCOCC4)C[C@H]3c3ccccc3)CC2)CC1", 114),
]

Now for another entry.
[in] Given the entry Cc1cc(C#N)nc(C)c1C(=O)N1CCC(C)(N2CCC(N3C(=O)N(C4CCOCC4)CC3c3ccccc3)CC2)CC1 (racemic) , report its measured half-life.
[out] 114

###

experiment: Intrinsic clearance in human liver microsomes per mg of protein; type: ADME, Microsome
Hi! Could you tag entries with microsomal CLint below 10 µL/min/mg as T, and those at or above as F? Much appreciated.

[in] # check: microsomal CLint < 10 µL/min/mg for Cc1ncnc(C)c1C(=O)N1CCC(C)(N2CCC(N3C(=O)N(CC4CCOCC4)CC3c3ccccc3)CC2)CC1 (racemic)
[out] F

[in] # check: microsomal CLint < 10 µL/min/mg for CCCCC1CN(C2CCOCC2)C(=O)N1C1CCN(C2(C)CCN(C(=O)c3c(C)cc(C#N)nc3C)CC2)CC1 (racemic)
[out] F

[in] # check: microsomal CLint < 10 µL/min/mg for `Cc1ncnc(C)c1C(=O)N1CCC(C)(N2CCC(N3C(=O)N(CC4CCOCC4)C[C@H]3c3ccccc3)CC2)CC1`
[out] F

[in] # check: microsomal CLint < 10 µL/min/mg for `Cc1ncnc(C)c1C(=O)N1CCC(C)(N2CCC(N3C(=O)N(C[C@H]4CC[C@H](O)CC4)C[C@H]3c3ccccc3)CC2)CC1`
[out] F

[in] # check: microsomal CLint < 10 µL/min/mg for CCCCC1CN(CC2CCOCC2)C(=O)N1C1CCN(C2(C)CCN(C(=O)c3c(C)ncnc3C)CC2)CC1 (racemic)
[out] F

[in] # check: microsomal CLint < 10 µL/min/mg for `Cc1ncnc(C)c1C(=O)N1CCC(C)(N2CCC(N3C(=O)N(C4CCOCC4)C[C@H]3c3ccccc3)CC2)CC1`
[out] T

###

assay: Oral bioavailability in rat at 1 mg/kg; assay type: ADME, organism-based; conditions: in vivo
measure: bioavailability
State the result as a value with its unit after it.

# compound, bioavailability
records = [
    ("Cc1cc(C#N)nc(C)c1C(=O)N1CCC(C)(N2CCC(N3C(=O)N(CC4CCOCC4)C[C@@H]3c3ccccn3)CC2)CC1", "19%"),
    ("CCO[C@H]1CC[C@H](CN2C[C@@H](c3ccccc3)N(C3CCN(C4(C)CCN(C(=O)c5c(C)ncnc5C)CC4)CC3)C2=O)CC1", "10%"),
]

Now for another entry.
[in] Given the entry Cc1ncnc(C)c1C(=O)N1CCC(C)(N2CCC(N3C(=O)N(CC4CCOCC4)CC3c3ccccc3)CC2)CC1 (racemic) , report its measured bioavailability.
[out] 27%

###

Measured Papp A→B accompanies every entry in the list below.
assay: Permeability from apical to basolateral side of human Caco-2 cells after 21 days; assay type: ADME, cell-based; conditions: read-out: permeability
Field format: number, assumed ×10⁻⁶ cm/s, no unit text.

Some solved cases for reference:
# compound, quantitative readout
rows = [
    ("CCO[C@H]1CC[C@H](CN2C[C@@H](c3ccccc3)N(C3CCN(C4(C)CCN(C(=O)c5c(C)ncnc5C)CC4)CC3)C2=O)CC1", 3),
    ("Cc1ncnc(C)c1C(=O)N1CCC(C)(N2CCC(N3C(=O)N(CCC4CCOCC4)C[C@H]3c3ccccc3)CC2)CC1", 0.8),
    ("Cc1ncnc(C)c1C(=O)N1CCC(C)(N2CCC(N3C(=O)N(CC4CCOCC4)CC3c3ccccc3)CC2)CC1 (racemic)", 0.4),
    ("Cc1ncnc(C)c1C(=O)N1CCC(C)(N2CCC(N3C(=O)N(C4CCOCC4)C[C@H]3c3ccccc3)CC2)CC1", 0.6),
    ("Cc1ncnc(C)c1C(=O)N1CCC(C)(N2CCC(N3C(=O)N(CC4CCN(S(C)(=O)=O)CC4)C[C@H]3c3ccccc3)CC2)CC1", 0.2),
]

[in] Given the entry `Cc1cc(C#N)nc(C)c1C(=O)N1CCC(C)(N2CCC(N3C(=O)N(CC4CCOCC4)C[C@H]3c3ccccc3)CC2)CC1` , report its measured Papp A→B.
[out] 1

[in] Given the entry `CNC(=O)N1CCC(CN2C[C@@H](c3ccccc3)N(C3CCN(C4(C)CCN(C(=O)c5c(C)cc(C#N)nc5C)CC4)CC3)C2=O)CC1` , report its measured Papp A→B.
[out] 0.7

[in] Given the entry `Cc1cc(C#N)nc(C)c1C(=O)N1CCC(C)(N2CCC(N3C(=O)N(C4CCOCC4)C[C@H]3c3ccccc3)CC2)CC1` , report its measured Papp A→B.
[out] 1

[in] Given the entry `Cc1cc(C#N)nc(C)c1C(=O)N1CCC(C)(N2CCC(N3C(=O)N(C)C[C@H]3c3ccccc3)CC2)CC1` , report its measured Papp A→B.
[out] 0.6

[in] Given the entry `Cc1ncnc(C)c1C(=O)N1CCC(C)(N2CCC(N3C(=O)N(C[C@H]4CC[C@H](O)CC4)C[C@H]3c3ccccc3)CC2)CC1` , report its measured Papp A→B.
[out] 0.2

[in] Given the entry CCCCC1CN(C2CCOCC2)C(=O)N1C1CCN(C2(C)CCN(C(=O)c3c(C)ncnc3C)CC2)CC1 (racemic) , report its measured Papp A→B.
[out] 0.4

[in] Given the entry `Cc1cc(C#N)nc(C)c1C(=O)N1CCC(C)(N2CCC(N3C(=O)N(C[C@H]4CC[C@H](O)CC4)C[C@H]3c3ccccc3)CC2)CC1` , report its measured Papp A→B.
[out] 0.4

[in] Given the entry `Cc1cc(C#N)nc(C)c1C(=O)N1CCC(C)(N2CCC(N3C(=O)N(CC4CCOCC4)C[C@@H]3c3ccccn3)CC2)CC1` , report its measured Papp A→B.
[out] 0.1

[in] Given the entry `CNC(=O)N1CCC(CN2C[C@@H](c3ccccc3)N(C3CCN(C4(C)CCN(C(=O)c5c(C)ncnc5C)CC4)CC3)C2=O)CC1` , report its measured Papp A→B.
[out] 0.1
